Assay: Mouse Liver Microsome stability assay
Type: in vitro ADME
Conditions: mouse liver microsomes
experimental readout: WuXi Microsomal stability (Mouse Extraction Ratio)

>>> value("COc1ccc(-c2ncccn2)cc1Nc1ncnc2[nH]nc(-c3cc[nH]n3)c12")
0.8
>>> value("COc1ccc(-c2cnccn2)cc1Nc1ncnc2[nH]nc(-c3cc[nH]n3)c12")
0.9
>>> value("CN(C)c1ccc(-c2ccsc2)cc1Nc1ncnc2[nH]nc(-c3cc[nH]n3)c12 [104A]")
0.87

====

In this section we review reported GI50 values for a set of compounds.
Biological target: 2YF/3wt + NRG Ba/F3 cells (HER2YF/HER3wt) (Homo sapiens, UniProt P04626, Y1005F/Y1023F/Y1112F/Y1127F/Y1139F/Y1196F/Y1221F/Y1222F/Y1248F, cells depend on it)
Sequence (P04626 whole entry Y1005F/Y1023F/Y1112F/Y1127F/Y1139F/Y1196F/Y1221F/Y1222F/Y1248F): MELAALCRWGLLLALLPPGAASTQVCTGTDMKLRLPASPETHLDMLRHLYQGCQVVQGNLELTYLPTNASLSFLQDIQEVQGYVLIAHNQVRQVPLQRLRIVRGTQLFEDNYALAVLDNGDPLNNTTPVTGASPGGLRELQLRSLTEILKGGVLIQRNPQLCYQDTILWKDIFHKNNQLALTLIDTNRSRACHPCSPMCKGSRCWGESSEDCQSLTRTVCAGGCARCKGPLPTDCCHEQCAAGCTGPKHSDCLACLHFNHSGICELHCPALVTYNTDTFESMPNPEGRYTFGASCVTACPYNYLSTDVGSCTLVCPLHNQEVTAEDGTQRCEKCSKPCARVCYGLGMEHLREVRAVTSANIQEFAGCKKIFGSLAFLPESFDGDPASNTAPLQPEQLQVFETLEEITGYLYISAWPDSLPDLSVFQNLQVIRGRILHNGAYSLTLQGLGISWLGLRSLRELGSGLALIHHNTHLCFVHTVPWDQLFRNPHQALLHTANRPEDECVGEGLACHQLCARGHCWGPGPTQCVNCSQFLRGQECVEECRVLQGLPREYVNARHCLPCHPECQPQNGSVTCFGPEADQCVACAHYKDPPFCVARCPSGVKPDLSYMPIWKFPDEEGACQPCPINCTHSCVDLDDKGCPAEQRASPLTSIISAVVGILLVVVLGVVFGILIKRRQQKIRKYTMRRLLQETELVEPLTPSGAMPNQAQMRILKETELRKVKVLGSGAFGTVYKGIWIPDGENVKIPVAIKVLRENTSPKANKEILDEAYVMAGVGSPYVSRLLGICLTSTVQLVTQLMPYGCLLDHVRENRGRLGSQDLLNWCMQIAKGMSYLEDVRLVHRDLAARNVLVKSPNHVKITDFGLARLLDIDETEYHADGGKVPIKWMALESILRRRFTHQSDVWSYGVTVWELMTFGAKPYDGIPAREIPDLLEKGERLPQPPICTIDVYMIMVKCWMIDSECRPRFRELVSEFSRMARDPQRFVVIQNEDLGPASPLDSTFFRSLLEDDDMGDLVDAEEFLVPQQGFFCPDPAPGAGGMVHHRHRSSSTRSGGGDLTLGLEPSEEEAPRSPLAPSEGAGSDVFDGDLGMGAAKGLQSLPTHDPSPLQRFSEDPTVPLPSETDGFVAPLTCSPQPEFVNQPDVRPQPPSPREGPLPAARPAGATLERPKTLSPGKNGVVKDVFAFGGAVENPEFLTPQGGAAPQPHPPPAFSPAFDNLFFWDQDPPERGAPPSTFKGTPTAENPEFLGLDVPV
Assay: Ba/F3 proliferation assay, 2YF/3wt + NRG
Format: cell-based
Details: Tables 7 and 8; read-out: Ba/F3 line IC50, HER2YF/HER3 + NRG
Description: Ba/F3 cells are normally dependent on IL-3 signaling for their proliferation and survival, but can be made dependent on introduced oncogenic signals. We sequentially selected transduced Ba/F3 cells for populations stably expressing HER3 and then HER2. To ensure that all of the proliferative signal could be attributed to HER2/HER3 heterodimers, rather than HER2 homodimers, the 9 C-terminal tyrosines in HER2 were mutated to phenylalanine (HER2YF). […]
experimental readout: GI50

>>> value("COc1ccccc1Nc1ncnc2[nH]nc(-c3ccccc3)c12 [Cmpd 187A]")
"> 10 µM"
>>> value("CC(=O)c1cccc(-c2n[nH]c3ncnc(Nc4cc(-c5ccccc5)ccc4C)c23)c1 [Cmpd 5-001A]")
"> 3.33 µM"
>>> value("c1ccc(-c2cccc(Nc3ncnc4[nH]nc(-c5ccccc5)c34)c2)cc1 [Cmpd 186A]")
"> 10 µM"
>>> value("COc1ccc(-c2cccc(C)c2)cc1Nc1ncnc2[nH]nc(-c3ccsc3)c12 [Cmpd 39B]")
"> 3.33 µM"

====

Biological target: Axl+ Ba/F3 cells (Homo sapiens)
Sequence (P30530 whole entry, change not shown): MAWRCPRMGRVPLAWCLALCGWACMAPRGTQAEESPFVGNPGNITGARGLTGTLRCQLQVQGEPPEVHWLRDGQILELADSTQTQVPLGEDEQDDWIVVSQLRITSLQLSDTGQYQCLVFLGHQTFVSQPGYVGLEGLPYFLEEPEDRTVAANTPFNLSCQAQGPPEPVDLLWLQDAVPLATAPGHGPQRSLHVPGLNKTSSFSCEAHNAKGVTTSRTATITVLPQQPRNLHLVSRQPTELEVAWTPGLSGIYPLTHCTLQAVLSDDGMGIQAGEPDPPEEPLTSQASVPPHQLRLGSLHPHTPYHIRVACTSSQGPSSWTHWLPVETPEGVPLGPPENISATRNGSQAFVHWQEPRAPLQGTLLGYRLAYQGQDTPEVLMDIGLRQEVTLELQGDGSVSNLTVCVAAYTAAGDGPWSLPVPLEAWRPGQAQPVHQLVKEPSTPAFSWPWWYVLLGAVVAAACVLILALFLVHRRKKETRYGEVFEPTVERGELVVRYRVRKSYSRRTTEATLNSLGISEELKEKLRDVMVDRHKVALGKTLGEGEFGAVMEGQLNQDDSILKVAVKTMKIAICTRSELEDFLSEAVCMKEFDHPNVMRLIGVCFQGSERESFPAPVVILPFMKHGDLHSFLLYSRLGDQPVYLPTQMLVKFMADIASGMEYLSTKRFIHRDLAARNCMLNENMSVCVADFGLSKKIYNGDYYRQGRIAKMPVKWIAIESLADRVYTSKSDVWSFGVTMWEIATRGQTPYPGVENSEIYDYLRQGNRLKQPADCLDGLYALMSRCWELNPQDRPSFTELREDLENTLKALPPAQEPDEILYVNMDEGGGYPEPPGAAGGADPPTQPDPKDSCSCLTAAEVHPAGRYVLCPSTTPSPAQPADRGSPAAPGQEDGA
Assay: Ba/F3 proliferation assay, Axl+
Assay type: cell-based
Details: Tables 7 and 8; read-out: Ba/F3 line IC50, Axl+
Protocol: To validate the screen and test the effectiveness of counter-screening with either the same 2YF/3wt Ba/F3 cell line or the parental Ba/F3's in the presence of IL-3 to remove cytotoxic primary hits, we first tested a panel of kinase inhibitors with established mechanisms of action. […] Proliferation Assays. […] Plates were incubated at 37° C. for 72 h and proliferation was read out using Cell Titer Glo (Promega) according to the manufacturer's protocol. […]
In this section we review reported GI50 values for a set of molecules.
experimental readout: GI50

>>> value("COc1ccc(-c2cccnc2)cc1Nc1ncnc2[nH]nc(-c3ccsc3)c12 [Cmpd 39D]")
"> 10000 nM"
>>> value("COc1ccc(N2CCOCC2)cc1Nc1ncnc2[nH]nc(-c3ccsc3)c12 [Cmpd 41A]")
"> 10000 nM"
>>> value("COc1ccc(-c2ccccc2C)cc1Nc1ncnc2[nH]nc(-c3ccsc3)c12 [Cmpd 39A]")
"> 10000 nM"
>>> value("COc1ccc(-c2ccoc2)cc1Nc1ncnc2[nH]nc(-c3ccco3)c12 [Cmpd 57A]")
"> 10000 nM"
>>> value("COc1ccc(-c2ccccc2)cc1Nc1ncnc2[nH]cc(-c3cc[nH]n3)c12 [8-089]")
"1160 nM"
>>> value("COc1ccc(-c2cccc(C)c2)cc1Nc1ncnc2[nH]nc(-c3ccsc3)c12 [Cmpd 39B]")
"1760 nM"
>>> value("COc1ccc(-c2ccccc2)cc1Nc1ncnc2[nH]nc(-c3ccc(C(F)(F)F)cc3)c12 [Cmpd 191E]")
"> 10000 nM"
>>> value("COc1ccc(-c2ccccc2)cc1Nc1ncnc2[nH]nc(-c3ccc(C(C)=O)cc3)c12 [Cmpd 191H]")
"> 10000 nM"
>>> value("COc1ccc(-c2ccccc2)cc1Nc1ncnc2[nH]cc(-c3ccn(C)n3)c12 [8-095]")
"1310 nM"
>>> value("COc1cccc(-c2n[nH]c3ncnc(Nc4cc(-c5ccccc5)ccc4OC)c23)c1 [Cmpd 190A]")
"171 nM"
>>> value("c1ccc(-c2cccc(Nc3ncnc4[nH]nc(-c5ccccc5)c34)c2)cc1 [Cmpd 186A]")
"> 10000 nM"

The values you see were collected from patent US20190119284A1.
